- Test system: CAKI-1
- protocol.notes: NCI tumour cell line growth inhibition, 48 h
The source made the active and inactive calls. Rule as the data show it: active = GI50 up to about 1.1 µM and inactive = higher.
Tick one outcome: active, inactive

Consider the worked cases shown below.
Ask: Any idea what this test logged for `CCCCCCOc1ccc(C(=O)NOC)cc1` ?
Reply: inactive

Ask: Any idea what this test logged for COc1cc(C=O)c(-c2cc3c(cc2C2(C)OCCS2)OCO3)c(OC)c1OC (stereo unspecified) ?
Reply: inactive

Ask: Any idea what this test logged for COCC(OC)C(CC=C(C#N)C#N)OC (stereo unspecified) ?
Reply: inactive

Ask: Any idea what this test logged for `COc1ccccc1-c1cc(=O)c2ccccc2n1C1CC1` ?
Reply: inactive

Ask: Any idea what this test logged for COC(CN(C)C(=O)C(C)NC(=O)c1ccccc1)OC (stereo unspecified) ?
Reply: inactive

Ask: Any idea what this test logged for `Cn1nc(-c2ccccc2)c(C(=O)/C=C/c2ccc(Cl)cc2)c(N2CCCC2)c1=O` ?
Reply: active

Ask: Any idea what this test logged for `COC(=O)/C=C1/OC(c2ccc(C)cc2)=C(Cl)C1=O` ?
Reply: inactive

Ask: Any idea what this test logged for C=C(Cl)C(Cl)(CBr)CCC(Br)C(C)(C)Br (stereo unspecified) ?
Reply: inactive

Further cases:
Ask: Any idea what this test logged for `N#CC(C#N)=C(N)/C(C#N)=C/c1cc(O)c(O)c(Br)c1` ?
Reply: inactive

Ask: Any idea what this test logged for `CC1(C)C(C#N)=[N+]([O-])C(C)(C)N1O` ?
Reply: inactive

----------
GI50: recorded values
- Tested on: SR
- protocol.notes: NCI tumour cell line growth inhibition, 48 h
Calls of active or inactive are those of the source. Cut-off read from the data, not from the text of the source: active = GI50 up to about 1.1 µM and inactive = higher.

Ask: // fetch GI50; item: CC(=O)OC1CCC2(C)C(=CCC3C2CCC2(C)C3CC3OC4(CCC(C)CN4)C(C)C32)C1 (stereo not given) ; system: SR
Reply: 80.2 µM (inactive)

Further cases:
Ask: // fetch GI50; item: `O=C(c1ccccc1)N1C(=S)NC(=N/c2ccccc2)/C1=N\c1ccccc1` ; system: SR
Reply: > 100 µM (inactive)

Ask: // fetch GI50; item: `COC(=O)/C=C/c1cc(OC)c(OC)c(OC)c1` ; system: SR
Reply: > 100 µM (inactive)

Ask: // fetch GI50; item: `CC(=O)Nc1ccc(S(=O)(=O)/N=C2\C=CC(=O)c3ccccc32)cc1` ; system: SR
Reply: 2.25 µM (inactive)

Ask: // fetch GI50; item: COCC(OC)C(CC=C(C#N)C#N)OC (stereo not given) ; system: SR
Reply: > 100 µM (inactive)

Ask: // fetch GI50; item: C1OC1CO[C@@H]1CO[C@H]2[C@@H]1OC[C@H]2OCC1CO1 (stereo not given in full) ; system: SR
Reply: 89.5 µM (inactive)

Ask: // fetch GI50; item: `CCN(CC)CCNc1ccc2nnn3c4ccc(OC)cc4c(=O)c1c23` ; system: SR
Reply: 1.59 µM (inactive)

Ask: // fetch GI50; item: CC(=O)Nc1nc(C)c(S(=O)(=O)NC(=O)NC2NC(=O)NC2=O)s1 (stereo not given) ; system: SR
Reply: > 100 µM (inactive)

Ask: // fetch GI50; item: COc1cc(/C=C/C(=O)OC2C(O)C3CC(OC(=O)c4cc(OC)c(OC)c(OC)c4)CC2N3C)cc(OC)c1OC (stereo not given) ; system: SR
Reply: 10.1 µM (inactive)

Ask: // fetch GI50; item: `COc1ccc(CNNC(=O)c2cc[n+]([BH2-]C#N)cc2)cc1OC` ; system: SR
Reply: > 100 µM (inactive)

Hello, the source for this data is ChEMBL document CHEMBL1201862, in case you need it.
